target.desc: human NTCP (Homo sapiens, UniProt Q14973)
assay.method.text: Screening taurocholate uptake assay (96-well, [14C]taurocholate, 10 µM drug)
run.parameters: combined ranking from functional and binding screening assays
Structures can show the parent of a compound that is named as a salt.
Give True when the value for Ranking score is at least 400. Give False when it is less.

[
  {
    "compound": "CC(Oc1ccccc1)C(=O)N[C@@H]1C(=O)N2[C@@H]1SC(C)(C)[C@@H]2C(=O)[O-].[K+] (some centres unmarked) [Phenethicillin potassium salt]",
    "label.class": "True"
  }
]

Could you verify whether the entry COc1ccc(CN(CCN(C)C)c2ccccn2)cc1 [Pyrilamine maleate] shows Ranking score of no less than 400?
True

Is reported Ranking score greater than or equal to 400 here: O=C(O)COC(=O)Cc1ccccc1Nc1c(Cl)cccc1Cl [Aceclofenac]
False

====

Would you kindly list Ranking score for each of these compounds?
target.desc: human NTCP (Homo sapiens, UniProt Q14973)
assay.method.text: Screening taurocholate uptake assay (96-well, [14C]taurocholate, 10 µM drug)
run.parameters: combined ranking from functional and binding assay B-scores
Structures can show the parent of a compound that is named as a salt.
Give bare numbers.

[
  {
    "compound": "O=C(NC(Cc1cc(=O)[nH]c2ccccc12)C(=O)O)c1ccc(Cl)cc1 (centres unmarked) [Rebamipide]",
    "Ranking score": 955.076
  },
  {
    "compound": "OC[C@H]1O[C@@H](Oc2ccc(O)cc2)[C@H](O)[C@@H](O)[C@@H]1O [Arbutin]",
    "Ranking score": 944.447
  },
  {
    "compound": "CC[C@@H](CO)NC(=O)[C@@H]1C=C2c3cccc4[nH]cc(c34)C[C@H]2N(C)C1 [Methylergometrine maleate]",
    "Ranking score": 1029.08
  },
  {
    "compound": "CC(C[N+](C)(C)C)OC(N)=O (centres unmarked) [Bethanechol chloride]",
    "Ranking score": 1067.05
  },
  {
    "compound": "CN1CCCC(n2nc(Cc3ccc(Cl)cc3)c3ccccc3c2=O)CC1 (centres unmarked) [Azelastine HCl]",
    "Ranking score": 940.553
  }
]

Each of the following entries comes with a recorded value; kindly state Ranking score for each.
1. CCN(CC)CCNC(=O)COc1ccc(OC)cc1.Cl [Mefexamide hydrochloride]
2. Cc1nc2n(c(=O)c1CCN1CCC(c3noc4cc(F)ccc34)CC1)CCCC2 [Risperidone]

1. 979.142
2. 888.472

Please report the recorded Ranking score for CC(=O)OCC(=O)[C@H]1CC[C@H]2[C@@H]3CC[C@H]4C[C@H](O)CC[C@]4(C)[C@H]3C(=O)C[C@]12C [Alfadolone acetate] .
1074.24

====

Would you mind telling me the reported B-score binding assay of each entry?
target.desc: human NTCP (Homo sapiens, UniProt Q14973)
Sequence (Q14973 1-349): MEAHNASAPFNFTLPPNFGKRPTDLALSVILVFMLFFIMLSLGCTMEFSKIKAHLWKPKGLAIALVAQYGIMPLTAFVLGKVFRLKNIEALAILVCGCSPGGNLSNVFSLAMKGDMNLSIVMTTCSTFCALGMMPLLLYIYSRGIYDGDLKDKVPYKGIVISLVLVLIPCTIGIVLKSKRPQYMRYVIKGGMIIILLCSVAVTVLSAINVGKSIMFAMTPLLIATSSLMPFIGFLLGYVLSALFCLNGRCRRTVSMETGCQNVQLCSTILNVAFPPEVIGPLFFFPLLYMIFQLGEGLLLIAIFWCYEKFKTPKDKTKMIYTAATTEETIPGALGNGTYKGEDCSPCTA
assay.method.text: Screening fluorescent competitive Myrcludex B-FITC binding assay (96-well, 10 µM drug)
run.parameters: screen, 10 µM drug, Myrcludex B-FITC binding
Structures can show the parent of a compound that is named as a salt.

For each of the items listed, what is its B-score binding assay?
1. S=C(NC1CCCCC1)N1CCC(c2cnc[nH]2)CC1 [Thioperamide maleate]
2. OCCOCCN1CCN(C(c2ccccc2)c2ccc(Cl)cc2)CC1 (centres unmarked) [Hydroxyzine dihydrochloride]
3. Nc1ccc(S(N)(=O)=O)cc1 [Sulfanilamide]
4. CC1(C)OC(=O)NC1=O [Dimethadione]
5. O=P(O)(O)C(Cl)(Cl)P(=O)(O)O [Clodronate]

1. 0.108
2. -1.7
3. -1.742
4. -1.829
5. -0.166

====

target.desc: human NTCP (Homo sapiens)
assay.method.text: Screening fluorescent competitive Myrcludex B-FITC binding assay (96-well, 10 µM drug)
run.parameters: Prestwick library screen, 10 µM drug; B-score of Myrcludex B-FITC binding
Counter-ions that a name gives are not always drawn.
Please assign 0.0 whenever B-score binding assay is at or above 0.9, and 1.0 whenever it is below.

Use the examples below as a reference point.
[
  {
    "compound": "CCOC(=O)[C@@](C)(N)Cc1ccc(O)c(O)c1 [Methyldopate hydrochloride]",
    "target.desc": "human NTCP (Homo sapiens)",
    "label.class": 0.0
  },
  {
    "compound": "Nc1ccc(S(=O)(=O)Nc2ccnn2-c2ccccc2)cc1 [Sulfaphenazole]",
    "target.desc": "human NTCP (Homo sapiens)",
    "label.class": 1.0
  },
  {
    "compound": "CCC[C@@H]1C[C@@H](C(=O)N[C@@H]([C@H]2O[C@H](SC)[C@H](O)[C@@H](O)[C@H]2O)[C@@H](C)O)N(C)C1 [Lincomycin hydrochloride]",
    "target.desc": "human NTCP (Homo sapiens)",
    "label.class": 1.0
  },
  {
    "compound": "O=S(=O)(O)c1cc(O)ccc1O [Ethamsylate]",
    "target.desc": "human NTCP (Homo sapiens)",
    "label.class": 0.0
  }
]

Given O=C1CN2Cc3c(ccc(Cl)c3Cl)N=C2N1 [Anagrelide] , is recorded B-score binding assay strictly lower than 0.9?
1.0

Just wondering, is B-score binding assay of CCN(CC)CCNC(=O)COc1ccc(OC)cc1.Cl [Mefexamide hydrochloride] below 0.9?
1.0

====

target.desc: human NTCP (Homo sapiens, UniProt Q14973)
Sequence (Q14973 1-349): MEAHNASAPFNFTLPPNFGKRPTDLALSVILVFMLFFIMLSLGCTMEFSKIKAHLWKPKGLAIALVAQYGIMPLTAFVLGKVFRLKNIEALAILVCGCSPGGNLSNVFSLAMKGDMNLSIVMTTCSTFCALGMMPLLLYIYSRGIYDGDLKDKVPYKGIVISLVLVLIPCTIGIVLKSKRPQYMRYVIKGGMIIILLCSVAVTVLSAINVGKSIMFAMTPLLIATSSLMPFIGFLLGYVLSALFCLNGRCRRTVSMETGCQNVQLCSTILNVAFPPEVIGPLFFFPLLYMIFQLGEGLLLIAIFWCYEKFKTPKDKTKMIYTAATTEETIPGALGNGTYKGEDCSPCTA
assay.method.text: Screening fluorescent competitive Myrcludex B-FITC binding assay (96-well, 10 µM drug)
run.parameters: Prestwick library screen, 10 µM drug; B-score of Myrcludex B-FITC binding
Where a name gives a salt, the structure may show the parent alone.
Label 1 for high-side B-score binding assay (at or above 0.8) and 0 for low-side B-score binding assay (below it).

[
  {
    "compound": "CN1C(C)(C)CCCC1(C)C [Pempidine tartrate]",
    "label.class": 1
  }
]

hey, is B-score binding assay for this one >= 0.8? CC(=O)/N=c1/sc(S(N)(=O)=O)nn1C [Methazolamide]
0

Does CC[C@H]1OC(=O)[C@H](C)[C@@H](O[C@H]2C[C@@](C)(OC)[C@@H](O)[C@H](C)O2)[C@H](C)[C@@H](O[C@@H]2O[C@H](C)C[C@H](N(C)C)[C@H]2O)[C@](C)(O)C[C@@H](C)[C@@H]2N[C@@H](COCCOC)O[C@H]([C@H]2C)[C@]1(C)O have a reported B-score binding assay of at least 0.8?
0

Exam item: decide whether the reported B-score binding assay for COc1ncnc(NS(=O)(=O)c2ccc(N)cc2)c1OC is at least 0.8.
0

In plain terms: is recorded B-score binding assay at least 0.8 for O=C(O)CNC(=O)C(CS)Cc1ccccc1 (centres unmarked) ?
1

Is B-score binding assay at least 0.8? Consider NS(=O)(=O)c1cc2c(cc1Cl)NC(C(Cl)Cl)NS2(=O)=O (centres unmarked) [Trichlormethiazide]
0

State whether the measured B-score binding assay reaches 0.8, counting equality as reaching it, for CCOC(=O)C1=C(COCCN)NC(C)=C(C(=O)OC)C1c1ccccc1Cl (centres unmarked)
1

Please tell me: is the compound C1N2CN3CN1CN(C2)C3 at or over 0.8 in terms of B-score binding assay?
0

====

target.desc: human NTCP (Homo sapiens)
assay.method.text: Screening taurocholate uptake assay (96-well, [14C]taurocholate, 10 µM drug)
run.parameters: combined ranking of functional and binding screening assays
Counter-ions that a name gives are not always drawn.
readout.kind: Ranking score

[
  {
    "molecule": "Cc1cc(CC(=O)[O-])n(C)c1C(=O)c1ccc(Cl)cc1.[Na+] [Zomepirac sodium salt]",
    "Ranking score": 527.712
  },
  {
    "molecule": "CC[N+](C)(CC)CCOC(=O)C1c2ccccc2Oc2ccccc21 [Methantheline bromide]",
    "Ranking score": 536.517
  },
  {
    "molecule": "CC(C)(C)NC[C@@H](O)COc1cccc2c1CCCC2=O.Cl [(+) -Levobunolol hydrochloride]",
    "Ranking score": 464.377
  },
  {
    "molecule": "CC(C(=O)O)c1ccc(C(=O)c2cccs2)cc1 (stereo not shown)",
    "Ranking score": 554.797
  },
  {
    "molecule": "CC(=O)[C@H]1CC[C@H]2[C@@H]3C=CC4=CC(=O)CC[C@@]4(C)[C@@H]3CC[C@]12C",
    "Ranking score": 511.223
  }
]

I would be grateful if you could provide Ranking score for each of the following entries.
1. CC(C)[C@H](N)C(=O)OCCOCn1cnc2c(=O)[nH]c(N)nc21 [Valacyclovir hydrochloride]
2. Cc1c(NC(=O)c2cccnc2)c(=O)n(-c2ccccc2)n1C
3. CCN(CCCCOC(=O)c1ccc(OC)c(OC)c1)C(C)Cc1ccc(OC)cc1 (stereo not shown) [Mebeverine hydrochloride]
4. C=CCN1CCCC1CNC(=O)c1cc2[nH]nnc2cc1OC.Cl (stereo not shown) [Alizapride HCl]
5. CC(=O)[C@@]1(O)CC[C@H]2[C@@H]3C[C@H](C)C4=CC(=O)C=C[C@]4(C)[C@@]3(F)[C@@H](O)C[C@@]21C
6. CC(C)Oc1ccc2c(=O)c(-c3ccccc3)coc2c1
7. CC(=O)OCC(=O)[C@@]12OC(C)(C)O[C@@H]1C[C@H]1[C@@H]3C[C@H](F)C4=CC(=O)C=C[C@]4(C)[C@@]3(F)[C@@H](O)C[C@@]12C [Fluocinonide]
8. CNc1ncnc2c1ncn2[C@@H]1O[C@H](CO)[C@@H](O)[C@H]1O

518.986
560.079
474.181
642.464
616.409
535.848
619.745
568.625
